- experimental-system: PDE7A (Homo sapiens, UniProt Q13946)
- Construct: targets used in the assays are full-length proteins (as opposed to simply the catalytic domain); expressed in transfected cells; host or cells: Schizosaccharomyces pombe, gene integrated at the cgs2 locus
- Sequence (Q13946 whole entry, the tested form may be a part): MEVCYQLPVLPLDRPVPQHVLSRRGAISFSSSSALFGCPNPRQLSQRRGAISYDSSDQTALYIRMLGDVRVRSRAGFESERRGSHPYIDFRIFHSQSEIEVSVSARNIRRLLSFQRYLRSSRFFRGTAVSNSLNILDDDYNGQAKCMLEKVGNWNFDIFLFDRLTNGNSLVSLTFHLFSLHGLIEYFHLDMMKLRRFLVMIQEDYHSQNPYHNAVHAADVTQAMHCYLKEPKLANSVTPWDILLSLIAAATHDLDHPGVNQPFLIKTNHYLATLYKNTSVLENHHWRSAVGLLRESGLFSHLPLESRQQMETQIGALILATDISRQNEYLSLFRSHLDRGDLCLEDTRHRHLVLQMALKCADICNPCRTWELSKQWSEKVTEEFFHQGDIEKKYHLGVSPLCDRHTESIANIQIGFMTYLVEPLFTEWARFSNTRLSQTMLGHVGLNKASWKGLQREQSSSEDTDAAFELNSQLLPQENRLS
- method: Fission yeast 5FOA growth assay, strain expressing PDE7A
- Format: cell-based
- condition-label: 20 uM compound, 5FOA growth screen
- Method: Cells were pregrown in EMM medium [MP Biomedicals (Solon, OH), 3% glucose, filter-sterilized to avoid carmelization, which would introduce variability into the optical density of the medium] containing from 0 mM to 2.5 mM cAMP (or either 0.5 mM or 1.0 mM cGMP). This was to repress expression of the fbp1-ura4 reporter prior to exposure of cells to 5FOA medium. […] Optical densities (OD600) of cultures were measured using a microplate reader. […]
quantity: 1 Assay (20 uM), PDE 7A (ND ND ND ND)
Numbers only here, please. The scale is ND ND ND ND.

{"molecule": "COC(=O)C1=C(C)N(c2ccccc2)/C(=C/c2cccs2)C1=O [2008, K19]", "quantity": "1 Assay (20 uM), PDE 7A", "reading": 2.43}

Q) Identify measured 1 Assay (20 uM), PDE 7A corresponding to COC(=O)C1=C(C)N(c2ccccc2F)C(=O)/C1=C\c1cccc(OC)c1O [2008, C21]
A) −0.08

Q) Identify measured 1 Assay (20 uM), PDE 7A corresponding to COC(=O)C1=C(C)N(c2ccc(C(C)C)cc2)C(=O)/C1=C\c1cccs1 [2008, O19]
A) 2.78

====

- experimental-system: PDE4A1 (Mus musculus, UniProt O89084)
- Construct: targets used in the assays are full-length proteins (as opposed to simply the catalytic domain); expressed in transfected cells; host or cells: Schizosaccharomyces pombe, gene integrated at the cgs2 locus
- method: Fission yeast 5FOA growth assay, strain expressing PDE4A1
- Assay type: cell-based, murine
- condition-label: 20 uM compound, 5FOA growth screen
quantity: 1 Assay (20 uM), PDE 4A1
Form rule: numeric answer, no unit written next to it.

Some molecules with known 1 Assay (20 uM), PDE 4A1 results, for comparison:
{"molecule": "Cc1ccc2c(c1)c1nc3ccccc3nc1n2C(C)C [Compound 41]", "quantity": "1 Assay (20 uM), PDE 4A1", "reading": 106.90}
{"molecule": "COC(=O)C1=C(C)N(C2CCCCC2)C(=O)/C1=C\\c1cccs1 [Compound 22]", "quantity": "1 Assay (20 uM), PDE 4A1", "reading": 98.84}

Now consider the entry below.
Q) Identify measured 1 Assay (20 uM), PDE 4A1 corresponding to COC(=O)C1=C(C)N(c2ccccc2Cl)C(=O)/C1=C\c1cccs1 [Compound 27]
A) 64.18

====

- Tested on: PDE2A, PDE4A, PDE4B, Cgs2
- method: High throughput 5FOA growth screens of bioactive libraries
- Assay type: cell-based, murine; Schizosaccharomyces pombe
- condition-label: average 20 μM; composite Z score cut-off ≧8.53
quantity: Result in high throughput screens for 5FOA-resistant growth

{"structure-as-smiles": "COc1c2occc2c(OC)c2c(=O)cc(C)oc12", "reading": "identified"}
{"structure-as-smiles": "COc1c2ccoc2cc2oc(C)cc(=O)c12", "reading": "identified"}
{"structure-as-smiles": "Cc1cc2cc3c(C)cc(=O)oc3c(C)c2o1", "reading": "identified"}

====

- experimental-system: PDE4B3 (Mus musculus)
- Construct: targets used in the assays are full-length proteins (as opposed to simply the catalytic domain); expressed in transfected cells; host or cells: Schizosaccharomyces pombe, gene integrated at the cgs2 locus
- Sequence (Q8VBU5 1-721): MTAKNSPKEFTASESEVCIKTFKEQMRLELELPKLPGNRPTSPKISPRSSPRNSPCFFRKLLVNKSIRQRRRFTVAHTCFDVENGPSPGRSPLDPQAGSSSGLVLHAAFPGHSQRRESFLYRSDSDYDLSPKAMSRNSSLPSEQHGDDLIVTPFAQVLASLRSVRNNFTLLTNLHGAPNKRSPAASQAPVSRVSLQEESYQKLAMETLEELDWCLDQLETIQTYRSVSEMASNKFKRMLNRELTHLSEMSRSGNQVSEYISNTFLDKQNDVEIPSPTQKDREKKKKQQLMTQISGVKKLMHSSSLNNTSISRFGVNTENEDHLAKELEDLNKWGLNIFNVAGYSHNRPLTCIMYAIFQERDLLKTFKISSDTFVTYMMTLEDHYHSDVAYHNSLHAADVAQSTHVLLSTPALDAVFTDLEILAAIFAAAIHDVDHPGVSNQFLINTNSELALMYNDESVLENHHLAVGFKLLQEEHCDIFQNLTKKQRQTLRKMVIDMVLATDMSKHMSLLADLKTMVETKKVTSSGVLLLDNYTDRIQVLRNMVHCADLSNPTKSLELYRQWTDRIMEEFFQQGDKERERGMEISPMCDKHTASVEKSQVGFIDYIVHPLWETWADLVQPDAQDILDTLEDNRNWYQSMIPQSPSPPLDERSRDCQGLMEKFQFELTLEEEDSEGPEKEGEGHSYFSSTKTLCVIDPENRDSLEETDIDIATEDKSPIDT
- method: Fission yeast 5FOA growth assay, strain expressing PDE4B3
- Assay type: cell-based, murine
- condition-label: 20 uM compound, 5FOA growth screen
- Experimental: High throughput drug screens were carried out at the Broad Institute's Chemical Biology Program screening facility (Broad Institute, Cambridge, Mass.). Depending upon the strain, cultures were pregrown to exponential phase in EMM complete medium containing from 0.5 to 2.5 mM cAMP to repress fbp1-ura4 transcription. […] Starting cell concentrations ranged from 0.5×10^5 to 4×10^5 cells/ml depending on the screening strain. […] Optical densities (OD600) of cultures were measured using a microplate reader. […]
quantity: 1 Assay (20 uM), PDE 4B3
Form rule: numeric answer, no unit written next to it.

Q) Identify measured 1 Assay (20 uM), PDE 4B3 corresponding to COC(=O)C1=C(C)N(C2CCCCC2)C(=O)/C1=C\c1cccs1
A) 70.26

Q) Identify measured 1 Assay (20 uM), PDE 4B3 corresponding to Cc1ccc2c(c1)c1nc3ccccc3nc1n2C(C)C
A) 200.51

Q) Identify measured 1 Assay (20 uM), PDE 4B3 corresponding to COC(=O)C1=C(C)N(c2ccccc2Cl)C(=O)/C1=C\c1cccs1
A) −0.26

====

- experimental-system: PDE4A5 (Rattus norvegicus, UniProt P54748)
- Construct: targets used in the assays are full-length proteins (as opposed to simply the catalytic domain); expressed in transfected cells; host or cells: Schizosaccharomyces pombe, gene integrated at the cgs2 locus
- Sequence (P54748 whole entry, the tested form may be a part): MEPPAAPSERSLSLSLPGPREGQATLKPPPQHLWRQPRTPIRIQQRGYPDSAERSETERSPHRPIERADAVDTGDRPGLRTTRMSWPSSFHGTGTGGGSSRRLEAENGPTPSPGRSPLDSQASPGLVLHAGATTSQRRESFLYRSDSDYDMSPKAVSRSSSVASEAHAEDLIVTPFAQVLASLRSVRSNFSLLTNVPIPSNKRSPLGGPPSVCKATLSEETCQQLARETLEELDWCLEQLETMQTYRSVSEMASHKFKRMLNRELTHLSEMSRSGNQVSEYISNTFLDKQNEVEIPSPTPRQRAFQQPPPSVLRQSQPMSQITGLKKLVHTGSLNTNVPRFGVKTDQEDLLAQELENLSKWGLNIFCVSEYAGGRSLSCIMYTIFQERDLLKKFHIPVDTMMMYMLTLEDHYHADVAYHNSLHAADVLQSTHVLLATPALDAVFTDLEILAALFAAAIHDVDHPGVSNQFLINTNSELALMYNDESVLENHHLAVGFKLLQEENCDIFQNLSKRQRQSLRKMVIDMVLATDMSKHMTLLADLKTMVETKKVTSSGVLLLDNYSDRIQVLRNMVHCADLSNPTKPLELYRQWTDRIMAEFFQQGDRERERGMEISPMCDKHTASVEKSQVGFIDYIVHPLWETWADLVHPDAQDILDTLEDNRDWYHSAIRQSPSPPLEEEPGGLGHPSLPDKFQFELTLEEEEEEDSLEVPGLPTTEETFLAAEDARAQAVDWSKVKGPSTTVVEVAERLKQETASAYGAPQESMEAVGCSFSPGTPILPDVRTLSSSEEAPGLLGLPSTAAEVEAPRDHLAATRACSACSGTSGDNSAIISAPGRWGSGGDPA
- method: Fission yeast 5FOA growth assay, strain expressing PDE4A5
- Assay type: cell-based
- condition-label: 20 uM compound, 5FOA growth screen
- Experimental: High throughput drug screens were carried out at the Broad Institute's Chemical Biology Program screening facility (Broad Institute, Cambridge, Mass.). Depending upon the strain, cultures were pregrown to exponential phase in EMM complete medium containing from 0.5 to 2.5 mM cAMP to repress fbp1-ura4 transcription. […] Optical densities (OD600) of cultures were measured using a microplate reader. […]
Measured 1 Assay (20 uM), PDE 4A5 accompanies every entry in the list below.
Numbers only here, please. The scale is ND ND ND ND.

{"structure-as-smiles": "COC(=O)C1=C(C)N(c2ccccc2F)C(=O)/C1=C\\c1cccc(OC)c1O", "quantity": "1 Assay (20 uM), PDE 4A5", "reading": 1.80}
{"structure-as-smiles": "COC(=O)C1=C(C)N(c2ccc(C(C)C)cc2)C(=O)/C1=C\\c1cccs1", "quantity": "1 Assay (20 uM), PDE 4A5", "reading": 1.73}

Now consider the entry below.
Q) Identify measured 1 Assay (20 uM), PDE 4A5 corresponding to COC(=O)C1=C(C)N(c2ccccc2)/C(=C/c2cccs2)C1=O
A) −0.06

====

- experimental-system: PDE7A (Homo sapiens, UniProt Q13946)
- Construct: targets used in the assays are full-length proteins (as opposed to simply the catalytic domain); expressed in transfected cells; host or cells: Schizosaccharomyces pombe, gene integrated at the cgs2 locus
- method: Fission yeast 5FOA growth assay, strain expressing PDE7A
- Type: cell-based
- condition-label: 20 uM compound, 5FOA growth screen
Measured 1 Assay (20 uM), PDE 7A accompanies every entry in the list below.
Form rule: numeric answer, no unit written next to it.

{"structure-as-smiles": "Cc1ccc2c(c1)c1nc3ccccc3nc1n2C(C)C", "1 Assay (20 uM), PDE 7A": 0.31}
{"structure-as-smiles": "COC(=O)C1=C(C)N(C2CCCCC2)C(=O)/C1=C\\c1cccs1", "1 Assay (20 uM), PDE 7A": 132.82}

Now consider the entry below.
Q) Please report the measured 1 Assay (20 uM), PDE 7A for COC(=O)C1=C(C)N(c2ccccc2Cl)C(=O)/C1=C\c1cccs1 tested on PDE7A (Homo sapiens, UniProt Q13946).
A) 2.34

====

- experimental-system: PDE4A1 (Mus musculus)
- Construct: targets used in the assays are full-length proteins (as opposed to simply the catalytic domain); expressed in transfected cells; host or cells: Schizosaccharomyces pombe, gene integrated at the cgs2 locus
- Sequence (O89084 1-610 isoform O89084-2): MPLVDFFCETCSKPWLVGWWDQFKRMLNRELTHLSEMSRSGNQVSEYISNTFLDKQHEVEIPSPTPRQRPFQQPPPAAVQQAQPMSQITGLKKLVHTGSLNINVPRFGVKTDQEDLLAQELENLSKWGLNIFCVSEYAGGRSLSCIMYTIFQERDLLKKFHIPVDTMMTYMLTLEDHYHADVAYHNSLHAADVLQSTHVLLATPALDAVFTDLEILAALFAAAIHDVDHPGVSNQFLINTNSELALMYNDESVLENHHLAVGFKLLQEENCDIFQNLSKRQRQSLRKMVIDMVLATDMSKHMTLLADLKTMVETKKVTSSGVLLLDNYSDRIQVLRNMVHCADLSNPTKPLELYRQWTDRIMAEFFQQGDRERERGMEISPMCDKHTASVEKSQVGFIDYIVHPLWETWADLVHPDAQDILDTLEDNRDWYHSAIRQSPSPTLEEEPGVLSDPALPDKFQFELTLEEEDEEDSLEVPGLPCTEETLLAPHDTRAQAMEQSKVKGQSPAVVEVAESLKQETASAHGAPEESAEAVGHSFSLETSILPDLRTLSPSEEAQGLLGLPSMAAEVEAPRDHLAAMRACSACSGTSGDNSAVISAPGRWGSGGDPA
- method: Fission yeast 5FOA growth assay, strain expressing PDE4A1
- Format: cell-based, murine
- condition-label: 20 uM compound, 5FOA growth screen
Measured 1 Assay (20 uM), PDE 4A1 accompanies every entry in the list below.
Numbers only here, please. The scale is ND ND ND ND.

Some molecules with known 1 Assay (20 uM), PDE 4A1 results, for comparison:
{"structure-as-smiles": "COC(=O)C1=C(C)N(c2ccccc2F)C(=O)/C1=C\\c1cccc(OC)c1O", "reading": 18.97}
{"structure-as-smiles": "COC(=O)C1=C(C)N(c2ccccc2)/C(=C/c2cccs2)C1=O", "reading": "−0.46"}

Now consider the entry below.
Q) Identify measured 1 Assay (20 uM), PDE 4A1 corresponding to COC(=O)C1=C(C)N(c2ccc(C(C)C)cc2)C(=O)/C1=C\c1cccs1
A) 0.80
